Entry source: patent US10519147B2

biological target: human Nav1.7 (Homo sapiens, UniProt Q15858); construct: expressed in transfected cells; host or cells: HEK 293; experiment: IonWorks Quattro automated patch-clamp, inactivated state block of Nav1.7; type: cell-based; conditions: channels stably expressed in HEK 293 cells; double-pulse protocol, inactivated state block; read-out: potency for the Nav 1.7 sodium ion channel (IC50, as measured by IonWorks)
Sequence (Q15858 whole entry): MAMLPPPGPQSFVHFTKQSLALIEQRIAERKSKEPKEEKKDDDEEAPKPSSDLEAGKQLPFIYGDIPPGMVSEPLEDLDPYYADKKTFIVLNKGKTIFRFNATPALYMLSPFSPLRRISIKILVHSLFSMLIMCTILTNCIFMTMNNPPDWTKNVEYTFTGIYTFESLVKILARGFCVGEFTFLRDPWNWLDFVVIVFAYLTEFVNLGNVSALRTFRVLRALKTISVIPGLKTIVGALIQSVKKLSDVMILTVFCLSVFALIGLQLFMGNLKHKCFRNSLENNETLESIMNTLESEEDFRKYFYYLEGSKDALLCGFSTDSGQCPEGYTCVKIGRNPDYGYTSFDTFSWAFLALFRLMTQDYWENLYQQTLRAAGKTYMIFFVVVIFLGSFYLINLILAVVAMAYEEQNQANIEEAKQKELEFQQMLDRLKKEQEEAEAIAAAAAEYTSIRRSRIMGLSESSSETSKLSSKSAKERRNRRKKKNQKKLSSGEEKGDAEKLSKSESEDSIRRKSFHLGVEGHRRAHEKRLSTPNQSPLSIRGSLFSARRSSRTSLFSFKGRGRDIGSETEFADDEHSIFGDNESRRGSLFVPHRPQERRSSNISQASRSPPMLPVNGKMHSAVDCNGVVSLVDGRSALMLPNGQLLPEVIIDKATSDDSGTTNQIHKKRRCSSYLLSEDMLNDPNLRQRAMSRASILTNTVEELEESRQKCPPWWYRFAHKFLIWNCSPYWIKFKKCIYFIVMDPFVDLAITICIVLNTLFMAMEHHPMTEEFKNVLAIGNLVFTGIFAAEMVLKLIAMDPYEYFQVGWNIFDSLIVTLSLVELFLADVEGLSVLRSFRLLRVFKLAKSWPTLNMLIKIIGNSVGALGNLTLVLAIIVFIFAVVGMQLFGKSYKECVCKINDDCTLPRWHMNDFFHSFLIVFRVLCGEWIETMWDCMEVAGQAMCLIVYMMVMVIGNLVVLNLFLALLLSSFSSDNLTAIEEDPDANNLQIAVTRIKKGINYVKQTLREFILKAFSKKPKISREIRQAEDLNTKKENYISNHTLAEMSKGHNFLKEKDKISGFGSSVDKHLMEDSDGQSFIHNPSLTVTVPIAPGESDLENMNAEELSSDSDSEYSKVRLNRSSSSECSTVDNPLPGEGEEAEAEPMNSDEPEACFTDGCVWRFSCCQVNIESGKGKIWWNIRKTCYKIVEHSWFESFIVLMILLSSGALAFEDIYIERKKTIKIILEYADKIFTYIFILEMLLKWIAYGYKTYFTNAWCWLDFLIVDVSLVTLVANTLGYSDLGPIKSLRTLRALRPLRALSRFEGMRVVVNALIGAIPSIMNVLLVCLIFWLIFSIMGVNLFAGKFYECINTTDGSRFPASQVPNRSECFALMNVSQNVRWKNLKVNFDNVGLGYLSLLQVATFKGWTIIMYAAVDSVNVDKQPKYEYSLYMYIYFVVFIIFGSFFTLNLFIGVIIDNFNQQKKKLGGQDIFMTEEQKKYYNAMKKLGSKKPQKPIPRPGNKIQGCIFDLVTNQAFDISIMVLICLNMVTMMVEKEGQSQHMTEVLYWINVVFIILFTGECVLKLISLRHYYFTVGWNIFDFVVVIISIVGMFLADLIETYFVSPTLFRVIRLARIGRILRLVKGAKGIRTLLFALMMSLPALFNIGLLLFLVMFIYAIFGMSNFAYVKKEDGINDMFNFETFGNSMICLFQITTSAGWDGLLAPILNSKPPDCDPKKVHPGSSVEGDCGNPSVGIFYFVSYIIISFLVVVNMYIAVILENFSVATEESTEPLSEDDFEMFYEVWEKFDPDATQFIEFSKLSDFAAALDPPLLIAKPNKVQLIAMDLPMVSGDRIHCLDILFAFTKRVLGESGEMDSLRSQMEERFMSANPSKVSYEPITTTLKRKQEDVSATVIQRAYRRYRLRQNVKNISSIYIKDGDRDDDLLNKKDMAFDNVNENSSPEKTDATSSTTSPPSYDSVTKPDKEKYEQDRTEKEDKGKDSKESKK
pIC50: −log10 of the molar value.
Listing of recorded pIC50 by entry.
readout label: pIC50

compound | measured number
O=S(=O)(Nc1nccs1)c1cc(Cl)c(NCCCCNC[C@@H]2CCCN2)cc1F | 7.82
NC1CCC1NCCCCNc1cc(F)c(S(=O)(=O)Nc2ncns2)cc1Cl (single isomer, unassigned) [Ex 16-83] | 8.33
CC(CCCNc1cc(F)c(S(=O)(=O)Nc2nccs2)cc1Cl)NC[C@@H]1CCCN1 (mixture of isomers) | 7.96
C[C@@H](N)CNCCCCNc1cc(F)c(S(=O)(=O)Nc2ncns2)cc1Br | 8.23
